# System: NIH-3T3 cells overexpressing human IGF-1R (Homo sapiens, UniProt P08069)
# Construct: expressed in transfected cells; host or cells: NIH-3T3 (mouse fibroblasts)
# Sequence (P08069 31-1367): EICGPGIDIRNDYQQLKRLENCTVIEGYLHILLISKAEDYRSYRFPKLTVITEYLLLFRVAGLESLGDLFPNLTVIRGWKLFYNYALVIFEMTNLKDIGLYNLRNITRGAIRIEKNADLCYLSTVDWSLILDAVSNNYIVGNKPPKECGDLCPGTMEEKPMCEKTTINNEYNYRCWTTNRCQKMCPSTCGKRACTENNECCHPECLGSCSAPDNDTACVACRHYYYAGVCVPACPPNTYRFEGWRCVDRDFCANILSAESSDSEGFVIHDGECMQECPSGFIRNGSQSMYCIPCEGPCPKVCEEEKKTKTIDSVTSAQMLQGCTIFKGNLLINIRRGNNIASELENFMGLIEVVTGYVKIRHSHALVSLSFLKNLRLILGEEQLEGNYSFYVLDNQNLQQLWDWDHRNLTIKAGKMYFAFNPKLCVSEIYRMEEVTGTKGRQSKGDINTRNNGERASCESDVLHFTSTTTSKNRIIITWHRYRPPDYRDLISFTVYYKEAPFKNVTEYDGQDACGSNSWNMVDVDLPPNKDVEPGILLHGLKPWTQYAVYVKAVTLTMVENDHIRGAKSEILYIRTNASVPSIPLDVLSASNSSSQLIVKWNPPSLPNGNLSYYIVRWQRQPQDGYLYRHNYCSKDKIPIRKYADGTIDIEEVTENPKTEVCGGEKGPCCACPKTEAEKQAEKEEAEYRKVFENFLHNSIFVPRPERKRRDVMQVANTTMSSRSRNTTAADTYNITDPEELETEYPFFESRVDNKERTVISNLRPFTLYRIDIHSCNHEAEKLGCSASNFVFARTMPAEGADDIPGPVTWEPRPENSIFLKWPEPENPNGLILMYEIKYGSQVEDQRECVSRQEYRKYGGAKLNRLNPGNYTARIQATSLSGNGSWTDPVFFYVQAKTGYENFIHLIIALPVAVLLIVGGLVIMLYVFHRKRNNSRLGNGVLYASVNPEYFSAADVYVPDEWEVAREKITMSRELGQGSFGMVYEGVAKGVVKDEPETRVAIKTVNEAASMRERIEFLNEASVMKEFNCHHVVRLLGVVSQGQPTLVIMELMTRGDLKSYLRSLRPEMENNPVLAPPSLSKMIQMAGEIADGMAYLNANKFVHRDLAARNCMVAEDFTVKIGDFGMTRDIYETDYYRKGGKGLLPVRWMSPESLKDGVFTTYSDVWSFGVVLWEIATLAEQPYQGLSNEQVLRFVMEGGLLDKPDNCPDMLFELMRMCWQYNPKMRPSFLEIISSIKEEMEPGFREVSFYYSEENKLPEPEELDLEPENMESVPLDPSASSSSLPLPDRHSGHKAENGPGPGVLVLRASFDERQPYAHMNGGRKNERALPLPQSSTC
# Procedure Details: IGF-1R cellular autophosphorylation (DELFIA)
# Type: cell-based
Assay Metric: IC50

Field: example entries. Status: answers known.
{"Sample Smiles": "COc1cc(N2CCN(C(C)C)CC2)ccc1Nc1nc(Nc2cccc3c2C(=O)NC3)c2cc[nH]c2n1", "IC50": "< 100 nM"}
{"Sample Smiles": "COc1cc(N2CCC(N3CCN(CCF)CC3)CC2)ccc1Nc1nc(Nc2cccc(F)c2C(N)=O)c2cc[nH]c2n1", "IC50": "< 100 nM"}
{"Sample Smiles": "COc1cc2c(cc1Nc1nc(Nc3cccc(F)c3C(=O)NC(C)C)c3cc[nH]c3n1)N(C(=O)CN(C)C)CC2", "IC50": "100 to 500 nM"}
{"Sample Smiles": "COc1cc(N2CCC(N3CCCCC3)CC2)ccc1Nc1nc(Nc2cccc(F)c2C(N)=O)c2cc[nH]c2n1", "IC50": "100 to 500 nM"}

// query Requested field: IC50. Item: `COc1cc2c(cc1Nc1nc(Nc3cccc(F)c3C(N)=O)c3cc[nH]c3n1)N(C(=O)CN1CCCC1)CC2`
// result < 100 nM

// query Requested field: IC50. Item: `COc1cc(N2CCC(N3CCOCC3)CC2)ccc1Nc1nc(Nc2cc(F)ccc2C(N)=O)c2cc[nH]c2n1`
// result < 100 nM

// query Requested field: IC50. Item: `COc1cc(N2CCN(S(C)(=O)=O)CC2)ccc1Nc1nc(Nc2cccc(F)c2C(N)=O)c2cc[nH]c2n1`
// result > 500 nM

// query Requested field: IC50. Item: `COc1cc2c(cc1Nc1nc(Nc3cccc(F)c3C(N)=O)c3cc[nH]c3n1)N(CCN(C)C)CC2`
// result > 500 nM

// query Requested field: IC50. Item: `COc1cc2c(cc1Nc1nc(Nc3cccc4c3C(=O)NC4)c3cc[nH]c3n1)N(C(=O)CN(C)C)CC2`
// result < 100 nM

// query Requested field: IC50. Item: `COc1cc(N2CCC(N3CC[C@@H](F)C3)CC2)ccc1Nc1nc(Nc2cc(F)ccc2C(N)=O)c2cc[nH]c2n1`
// result < 100 nM

// query Requested field: IC50. Item: `COc1c(Nc2nc(Nc3cccc(F)c3C(N)=O)c3cc[nH]c3n2)ccc(N2CCN(C(C)C)CC2)c1C`
// result > 500 nM

---

IC50 by entry:
# System: NIH-3T3 cells overexpressing human IGF-1R (Homo sapiens)
# Procedure Details: IGF-1R cellular autophosphorylation (DELFIA)

Field: example entries. Status: answers known.
{"Sample Smiles": "COc1cc(N2CCN(C(C)C)CC2)c(OC)cc1Nc1nc(Nc2cccc(F)c2C(N)=O)c2cc[nH]c2n1", "System": "NIH-3T3 cells overexpressing human IGF-1R (Homo sapiens)", "IC50": "< 100 nM"}
{"Sample Smiles": "COc1cc(C2CCN(C(C)C)CC2)ccc1Nc1nc(Nc2ccc(F)cc2C(N)=O)c2cc[nH]c2n1", "System": "NIH-3T3 cells overexpressing human IGF-1R (Homo sapiens)", "IC50": "< 100 nM"}
{"Sample Smiles": "CCCN1CCC(c2ccc(Nc3nc(Nc4cc(F)cc(F)c4C(N)=O)c4cc[nH]c4n3)c(OC)c2)CC1", "System": "NIH-3T3 cells overexpressing human IGF-1R (Homo sapiens)", "IC50": "< 100 nM"}
{"Sample Smiles": "COc1cc(C2=CCCN(C)C2)ccc1Nc1nc(Nc2ccccc2C(N)=O)c2cc[nH]c2n1", "System": "NIH-3T3 cells overexpressing human IGF-1R (Homo sapiens)", "IC50": "< 100 nM"}
{"Sample Smiles": "COc1cc2c(cc1Nc1nc(Nc3ccc(F)c(F)c3C(=O)NC(C)C)c3cc[nH]c3n1)N(C(=O)CN(C)C)CC2", "System": "NIH-3T3 cells overexpressing human IGF-1R (Homo sapiens)", "IC50": "100 to 500 nM"}
{"Sample Smiles": "CCN(C)CC(=O)N1CCc2cc(OC)c(Nc3nc(Nc4cccc(F)c4C(=O)NC)c4cc[nH]c4n3)cc21", "System": "NIH-3T3 cells overexpressing human IGF-1R (Homo sapiens)", "IC50": "100 to 500 nM"}
{"Sample Smiles": "CCCN1CCC=C(c2ccc(Nc3nc(Nc4cc(F)ccc4C(N)=O)c4cc[nH]c4n3)c(OC)c2)C1", "System": "NIH-3T3 cells overexpressing human IGF-1R (Homo sapiens)", "IC50": "< 100 nM"}
{"Sample Smiles": "COc1cc(N2CCN(C(C)C)CC2)ccc1Nc1nc(Nc2cc(F)cc(F)c2C(N)=O)c2cc[nH]c2n1", "System": "NIH-3T3 cells overexpressing human IGF-1R (Homo sapiens)", "IC50": "< 100 nM"}

// query Recorded IC50 for `COc1cc(C)c(NC(=O)CN(C)C)cc1Nc1nc(Nc2cccc(F)c2C(N)=O)c2cc[nH]c2n1` with NIH-3T3 cells overexpressing human IGF-1R (Homo sapiens), please?
// result < 100 nM

// query Recorded IC50 for `COc1ccc(OC[C@@H](O)CN(C)C)cc1Nc1nc(Nc2cc(F)ccc2C(N)=O)c2cc[nH]c2n1` with NIH-3T3 cells overexpressing human IGF-1R (Homo sapiens), please?
// result 100 to 500 nM

// query Recorded IC50 for `CCCN1CCN(c2ccc(Nc3nc(Nc4ccccc4C(N)=O)c4cc[nH]c4n3)c(OC)c2)CC1` with NIH-3T3 cells overexpressing human IGF-1R (Homo sapiens), please?
// result < 100 nM

---

# System: NIH-3T3 cells overexpressing human IR (Homo sapiens, UniProt P06213)
# Sequence (P06213 28-1382): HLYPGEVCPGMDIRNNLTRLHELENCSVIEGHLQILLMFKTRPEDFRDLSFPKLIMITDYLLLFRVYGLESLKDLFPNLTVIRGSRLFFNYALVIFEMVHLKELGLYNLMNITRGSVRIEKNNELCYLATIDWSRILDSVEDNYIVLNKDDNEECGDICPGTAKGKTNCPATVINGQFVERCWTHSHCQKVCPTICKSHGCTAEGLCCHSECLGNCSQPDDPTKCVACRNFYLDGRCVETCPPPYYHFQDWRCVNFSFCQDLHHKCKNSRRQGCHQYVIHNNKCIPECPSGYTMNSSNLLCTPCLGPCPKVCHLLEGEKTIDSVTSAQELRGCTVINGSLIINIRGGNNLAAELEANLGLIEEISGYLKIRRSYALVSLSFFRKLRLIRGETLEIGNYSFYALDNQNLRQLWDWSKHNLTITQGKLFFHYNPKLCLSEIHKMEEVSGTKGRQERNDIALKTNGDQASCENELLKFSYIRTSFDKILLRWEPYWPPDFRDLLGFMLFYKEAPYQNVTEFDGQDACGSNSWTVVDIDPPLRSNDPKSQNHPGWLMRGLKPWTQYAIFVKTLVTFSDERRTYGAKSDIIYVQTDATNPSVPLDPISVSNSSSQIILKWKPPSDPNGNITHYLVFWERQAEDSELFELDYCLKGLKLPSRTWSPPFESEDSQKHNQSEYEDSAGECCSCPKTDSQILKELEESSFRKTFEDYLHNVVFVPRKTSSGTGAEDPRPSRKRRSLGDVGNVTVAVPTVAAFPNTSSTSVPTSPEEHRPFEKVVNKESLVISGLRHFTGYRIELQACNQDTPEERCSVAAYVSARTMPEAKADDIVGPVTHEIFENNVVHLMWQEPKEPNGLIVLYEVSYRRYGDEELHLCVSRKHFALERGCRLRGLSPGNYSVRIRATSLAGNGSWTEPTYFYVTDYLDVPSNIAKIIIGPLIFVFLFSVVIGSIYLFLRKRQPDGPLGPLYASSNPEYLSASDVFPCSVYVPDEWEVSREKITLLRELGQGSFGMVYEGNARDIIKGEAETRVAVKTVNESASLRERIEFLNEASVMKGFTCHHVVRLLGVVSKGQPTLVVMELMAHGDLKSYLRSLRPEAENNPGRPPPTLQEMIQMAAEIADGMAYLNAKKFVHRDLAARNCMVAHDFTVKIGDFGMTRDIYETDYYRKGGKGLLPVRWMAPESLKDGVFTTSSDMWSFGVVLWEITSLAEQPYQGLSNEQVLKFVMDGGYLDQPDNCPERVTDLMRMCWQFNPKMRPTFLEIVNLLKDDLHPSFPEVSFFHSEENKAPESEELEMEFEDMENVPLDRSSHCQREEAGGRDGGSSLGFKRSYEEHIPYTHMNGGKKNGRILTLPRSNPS
# Procedure Details: IR cellular autophosphorylation (DELFIA)
# Reported Conditions: 2 h compound, insulin 3 ug/ml for 15 minutes, IC50 category
# Description: NIH-3T3 cells overexpressing human IGF-1R or IR were plated in 96-well plates (10,000 cells/well) in culture media containing 10% fetal bovine serum and incubated at 37° C. in a 5% CO2 incubator. Twenty four hours post-plating, cells were treated with different concentrations of test compounds ranging from 30 uM to 1.5 nM. […] The fluorescence signal for cells treated with compounds was expressed as percent relative to 100% stimulation (IGF-1 or insulin stimulated signal).
pIC50: −log10 of the molar value.
pIC50 by entry:

{"Sample Smiles": "COc1cc2c(cc1Nc1nc(Nc3cccc(F)c3C(N)=O)c3cc[nH]c3n1)N(C(=O)CN1CCN(C(C)C)CC1)CC2", "pIC50": "< 6.30"}

// query Requested field: pIC50. Item: `COc1cc2c(cc1Nc1nc(Nc3cc(F)cc(F)c3C(=O)NC(C)C)c3cc[nH]c3n1)N(C(=O)CN(C)C)CC2`
// result < 6.30

// query Requested field: pIC50. Item: `CCCN(CCC)[C@@H](C)C(=O)N1CCc2cc(OC)c(Nc3nc(Nc4cccc(F)c4C(=O)NC)c4cc[nH]c4n3)cc21`
// result < 6.30

// query Requested field: pIC50. Item: `COc1ccc(N2CCN(C(C)C)CC2)cc1Nc1nc(Nc2ccccc2C(N)=O)c2cc[nH]c2n1`
// result 6.30 to 7.00

// query Requested field: pIC50. Item: `CCCN1CCC(COc2ccc(Nc3nc(Nc4cccc(F)c4C(N)=O)c4cc[nH]c4n3)c(OC)c2)CC1`
// result 6.30 to 7.00

// query Requested field: pIC50. Item: `COc1cc2c(cc1Nc1nc(Nc3cccc4c3C(=O)NC4)c3cc[nH]c3n1)N(C(=O)CN(C)C)CC2`
// result > 7.00

// query Requested field: pIC50. Item: `CNC(=O)c1cc2ccccc2cc1Nc1nc(Nc2cc3c(cc2OC)CCN3C(=O)CN(C)C)nc2[nH]ccc12`
// result 6.30 to 7.00

// query Requested field: pIC50. Item: `COc1cc2c(cc1Nc1nc(Nc3cccc(F)c3C(N)=O)c3cc[nH]c3n1)CN(C(=O)CCN(C)C)CC2`
// result 6.30 to 7.00

// query Requested field: pIC50. Item: `CCNC(=O)c1c(F)cc(F)cc1Nc1nc(Nc2cc3c(cc2OC)CCCN3C(=O)CN(C)C)nc2[nH]ccc12`
// result > 7.00

// query Requested field: pIC50. Item: `CCCN1CCC=C(c2ccc(Nc3nc(Nc4cc(F)ccc4C(N)=O)c4cc[nH]c4n3)c(OC)c2)C1`
// result > 7.00

---

# System: NIH-3T3 cells overexpressing human IGF-1R (Homo sapiens)
# Procedure Details: IGF-1R cellular autophosphorylation (DELFIA)
Assay Metric: IC50

Field: example entries. Status: answers known.
{"Sample Smiles": "CCN(C)CC(=O)N1CCCc2cc(OC)c(Nc3nc(Nc4cccc(F)c4C(=O)NC)c4cc[nH]c4n3)cc21", "System": "NIH-3T3 cells overexpressing human IGF-1R (Homo sapiens)", "IC50": "< 100 nM"}
{"Sample Smiles": "CCNC(=O)c1c(F)cccc1Nc1nc(Nc2cc3c(cc2OC)CCN3C(=O)CN(C)C)nc2[nH]ccc12", "System": "NIH-3T3 cells overexpressing human IGF-1R (Homo sapiens)", "IC50": "100 to 500 nM"}
{"Sample Smiles": "COc1cc(N2CCN(C(C)C)CC2)ccc1Nc1nc(Nc2ccc(Br)cc2C(N)=O)c2cc[nH]c2n1", "System": "NIH-3T3 cells overexpressing human IGF-1R (Homo sapiens)", "IC50": "100 to 500 nM"}

// query Requested field: IC50. Item: `COc1cc2c(cc1Nc1nc(Nc3cccc(F)c3C(N)=O)c3cc[nH]c3n1)NCCC2`
// result > 500 nM
